# assayed target: ATeam1.03YEMK R115A (Bacillus subtilis, UniProt P37812, G131E/INS132K/K132M/M60Y/R115A)
# Construct: YEMK epsilon subunit flanked by mseCFP and mVenus; polyhistidine-tagged
# Sequence (P37812 whole entry, stated change not applied): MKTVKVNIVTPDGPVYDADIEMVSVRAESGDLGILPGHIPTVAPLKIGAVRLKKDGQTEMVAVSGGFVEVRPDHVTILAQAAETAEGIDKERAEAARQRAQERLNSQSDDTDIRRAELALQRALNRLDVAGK
# test details: Steady-state FRET ratio ATP dose response of 0.125 uM purified ATeam1.03 or ATeam1.03YEMK sensor at room temperature in 50 mM MOPS-KOH pH 7.3, 50 mM KCl, 0.5 mM free Mg2+, 0.05% Triton-X100 (4 to 9 replicates).
# measurement conditions: SD, n = 4; read-out: ATP Affinity Kapp (ATeam1.03 and ATeam1.03YEMK)

compound: Nc1ncnc2c1ncn2[C@@H]1O[C@H](COP(=O)(O)OP(=O)(O)OP(=O)(O)O)[C@@H](O)[C@H]1O [ATP, Adenosine triphosphate]
Kd [µM]: 1800

###

# assayed target: ATeam1.03YEMK R115E (Bacillus subtilis, UniProt P37812, G131E/INS132K/K132M/M60Y/R115E)
# Construct: YEMK epsilon subunit flanked by mseCFP and mVenus; polyhistidine-tagged
# Sequence (P37812 whole entry, stated change not applied): as the sequence (P37812 whole entry, stated change not applied) above
# test details: Steady-state FRET ratio ATP dose response of 0.125 uM purified ATeam1.03 or ATeam1.03YEMK sensor at room temperature in 50 mM MOPS-KOH pH 7.3, 50 mM KCl, 0.5 mM free Mg2+, 0.05% Triton-X100 (4 to 9 replicates).
# measurement conditions: SD, n = 4; read-out: ATP Affinity Kapp (ATeam1.03 and ATeam1.03YEMK)

compound: Nc1ncnc2c1ncn2[C@@H]1O[C@H](COP(=O)(O)OP(=O)(O)OP(=O)(O)O)[C@@H](O)[C@H]1O [ATP, Adenosine triphosphate]
unit info: µM
Kd: 700

###

# assayed target: ATeam3.10 R103E/R115A (Bacillus sp. PS3, UniProt A0A0M5MQR7, R103E/R115A)
# Construct: gene uncC; epsilon subunit flanked by mseCFP and mVenus; polyhistidine-tagged
# Sequence (A0A0M5MQR7 entry or part of it R103E/R115A): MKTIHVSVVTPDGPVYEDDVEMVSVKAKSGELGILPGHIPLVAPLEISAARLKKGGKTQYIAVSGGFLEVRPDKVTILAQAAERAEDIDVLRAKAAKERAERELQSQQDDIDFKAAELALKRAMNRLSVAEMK
# test details: Steady-state FRET ratio ATP dose response of 0.125 uM purified ATeam3.10 sensor at room temperature in 50 mM MOPS-KOH pH 7.3, 50 mM KCl, 0.5 mM free Mg2+, 0.05% Triton-X100 (4 to 9 replicates).
# Format: binding
# measurement conditions: SD, n = 4; read-out: ATP Affinity Kapp
pKd: −log10 of the molar value.

compound: Nc1ncnc2c1ncn2[C@@H]1O[C@H](COP(=O)(O)OP(=O)(O)OP(=O)(O)O)[C@@H](O)[C@H]1O [ATP, Adenosine triphosphate]
pKd: 6.15

###

# assayed target: ATeam3.10 (WT) (Bacillus sp. PS3)
# Construct: gene uncC; epsilon subunit flanked by mseCFP and mVenus; polyhistidine-tagged, expressed in E. coli BL21(DE3)
# Sequence (A0A0M5MQR7 1-133): as the sequence (A0A0M5MQR7 entry or part of it R103E/R115A) above, with E103R, A115R counted along it
# test details: Steady-state FRET ratio ADP dose response of 0.125 uM purified ATeam3.10 sensor at room temperature in 50 mM MOPS-KOH pH 7.3, 50 mM KCl, 0.5 mM MgCl2, 0.05% Triton-X100 (4 to 9 replicates).
# Format: binding
# measurement conditions: n = 4; read-out: ADP Affinity Kapp
measurement kind: Kd (µM)

compound: Nc1ncnc2c1ncn2[C@@H]1O[C@H](COP(=O)(O)OP(=O)(O)O)[C@@H](O)[C@H]1O [ADP, Adenosine diphosphate]
readout number: 130

###

# assayed target: ATeam1.03YEMK R103E/R115E
# Construct: YEMK epsilon subunit flanked by mseCFP and mVenus; polyhistidine-tagged
# test details: Steady-state FRET ratio ATP dose response of 0.125 uM purified ATeam1.03 or ATeam1.03YEMK sensor at room temperature in 50 mM MOPS-KOH pH 7.3, 50 mM KCl, 0.5 mM free Mg2+, 0.05% Triton-X100 (4 to 9 replicates).
# measurement conditions: SD, n = 4; read-out: ATP Affinity Kapp (ATeam1.03 and ATeam1.03YEMK)
# Protocol: Protein Characterization. […] Samples were measured with n = 4 to 9 replicates. Figure 4 All ATeam1.03 R103 and R115 single and double mutants cause loss of ATP affinity. ATP dose responses were measured using purified protein in solution. […] (A) Example fluorescence emission spectra for (A) wildtype ATeam1.03 and (B) the non-binding R103A/R115A double mutant. Figure 5 ATeam1.03YEMK R103 and R115 single and double mutants tune ATP affinity. […]

compound: Nc1ncnc2c1ncn2[C@@H]1O[C@H](COP(=O)(O)OP(=O)(O)OP(=O)(O)O)[C@@H](O)[C@H]1O [ATP, Adenosine triphosphate]
Kd (µM): 2200

This collection of values is drawn from paper PMC12527034.
